Data provenance is patent US10124004B2.

Target: CDK4/cyclin D3 (Homo sapiens)
Construct: purchased Carna Biosciences, Inc. QS S Assist CDK4/Cyclin D3_FP Kit
Assay: Human CDK4/cyclin D3 inhibitory activity (QS S Assist CDK4/Cyclin D3_FP Kit, IMAP fluorescence polarization)
Format: biochemical
Settings: Human CDK4/cyclin D3 inhibitory activity; read-out: CDK4 Activity symbol
Measured Property: IC50

Example entries begin here.
# input Tell me reported IC50 for CC(C)Nc1nc(C(C)O)cc2cnc(Nc3ccc(N4CCCC(O)C4)nn3)nc12 (single isomer, unassigned) [Compound 582] , tested with CDK4/cyclin D3 (Homo sapiens).
# output < 10 nM

# input Here is the next molecule: `Cc1c(CO)nc(NC(C)C)c2nc(Nc3ccc(N4CCNCC4)cn3)ncc12`
# output < 10 nM

# input Entry CC(C)Nc1nc(C(C)O)cc2cnc(Nc3ccc(N4CCC(N(C)C)C(F)C4)nn3)nc12 (stereo not shown) [Compound 621] please
# output < 10 nM

# input Continue with `CC(C)Nc1nc(C(F)F)cc2cnc(Nc3ccc(C4=CC(=O)NCC4)cn3)nc12`
# output < 10 nM

# input Likewise for `CC(C)Nc1nc(C(F)F)cc2cnc(Nc3ccc(N4CCNCC4)nn3)nc12` ?
# output < 10 nM

Further cases:
# input Checklist item: IC50 tested on CDK4/cyclin D3 (Homo sapiens), entry `CC(C)Nc1nc(C(F)F)cc2cnc(Nc3ccc(N4C[C@H](O)CC4=O)cn3)nc12` , value?
# output < 10 nM

# input Same lookup for `CC(C)Nc1nc(C(F)F)cc2cnc(Nc3ccc(-c4ccc(O)cc4)cn3)nc12` , please.
# output ≥ 100 nM

# input Can you check `CO[C@H](C)c1cc2cnc(Nc3ccc(N4CCC(F)(F)CC4)cn3)nc2c(NC(C)C)n1` next?
# output ≥ 100 nM

# input CC(C)Nc1nc(C(F)F)cc2cnc(Nc3ccc(N4CCC(O)C4)cn3)nc12 (stereo not shown) , same question.
# output < 10 nM

# input Same question, CC(C)Nc1nc(C(C)O)cc2cnc(Nc3ccc(N4CCN(CCO)CC4)cn3)nc12 (stereo not shown) this time
# output < 10 nM

###

Target: CDK4/cyclin D3 (Homo sapiens, UniProt P11802)
Construct: purchased Carna Biosciences, Inc. QS S Assist CDK4/Cyclin D3_FP Kit
Sequence (P11802 whole entry): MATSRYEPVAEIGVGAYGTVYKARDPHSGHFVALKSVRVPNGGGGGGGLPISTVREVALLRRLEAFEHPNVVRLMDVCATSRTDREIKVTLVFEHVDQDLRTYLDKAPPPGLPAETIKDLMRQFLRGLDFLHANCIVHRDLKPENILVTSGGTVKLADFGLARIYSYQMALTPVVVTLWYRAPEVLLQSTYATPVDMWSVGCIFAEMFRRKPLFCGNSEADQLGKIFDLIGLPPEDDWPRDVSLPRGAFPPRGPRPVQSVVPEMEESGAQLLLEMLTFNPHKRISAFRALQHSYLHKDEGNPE
Sequence (P30281 whole entry partner): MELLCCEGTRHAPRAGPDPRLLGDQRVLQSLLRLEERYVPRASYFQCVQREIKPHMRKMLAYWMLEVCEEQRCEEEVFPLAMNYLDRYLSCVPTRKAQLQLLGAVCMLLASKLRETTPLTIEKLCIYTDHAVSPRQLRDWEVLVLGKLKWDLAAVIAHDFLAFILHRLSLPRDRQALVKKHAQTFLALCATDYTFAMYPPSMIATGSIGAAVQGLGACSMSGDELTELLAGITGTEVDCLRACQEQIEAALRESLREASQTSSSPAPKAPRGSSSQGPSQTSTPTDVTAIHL
Experiment: Human CDK4/cyclin D3 inhibitory activity (QS S Assist CDK4/Cyclin D3_FP Kit, IMAP fluorescence polarization)
Type: biochemical
Conditions: Human CDK4/cyclin D3 inhibitory activity; read-out: CDK4 Activity symbol
Overview of recorded IC50 for various compounds

Field: example entries. Status: answers known.
# input What value of measured IC50 is listed for COCC(C)Nc1nc(C(F)F)cc2cnc(Nc3ccc(N4CCNCC4)cn3)nc12 (stereo not drawn) ?
# output < 10 nM

# input Similarly, CC(C)Nc1nc(C(C)O)cc2cnc(Nc3ccc(N4CCC(O)C4)cn3)nc12 (stereo not drawn) ?
# output < 10 nM

Next:
# input Could you tell me which IC50 is on file for `CC(C)Nc1nc([C@@H](C)O)cc2cnc(Nc3ccc(N4C(=O)CN5CCC4CC5)cn3)nc12` ?
# output < 10 nM

# input // repeat for `CO[C@H](C)c1cc2cnc(Nc3ccc(CN4CCNCC4)cn3)nc2c(N[C@H]2CC[C@H](C(=O)O)CC2)n1` and report
# output < 10 nM

# input Okay, and `CO[C@H](C)c1cc2cnc(Nc3ccc(C4CCNCC4)nn3)nc2c(NC(C)C)n1` ?
# output < 10 nM

# input And `CC(C)Nc1nc([C@@H](C)O)cc2cnc(Nc3ccc(N4CCN(CCO)CC4=O)cn3)nc12` ?
# output < 10 nM

# input Try the compound `CO[C@H](C)c1cc2cnc(Nc3ccc(CN4CCNC5(CC5)C4)cn3)nc2c(N[C@H]2CCCOC2)n1`
# output < 10 nM

# input Record: `CC(C)Nc1nc([C@@H](C)O)cc2cnc(Nc3ccc(N4CCN(C=O)CC4=O)cn3)nc12`
# output < 10 nM

# input Item: `CO[C@H](C)c1cc2cnc(Nc3ccc(CN4[C@@H](C)COC[C@@H]4C)cn3)nc2c(NC(C)C)n1`
# output ≥ 100 nM

# input One more compound: `CC(C)Nc1nc(C(F)F)cc2cnc(Nc3ccc(CCCNS(C)(=O)=O)cn3)nc12`
# output < 10 nM

# input Also COC(C)c1cc2cnc(Nc3ccc(CN4CCNCC4)cn3)nc2c(NC2CCC(=O)NC2)n1 (stereo not drawn) , if possible.
# output 10 to 100 nM

# input Moving on to `CO[C@H](C)c1cc2cnc(Nc3ccc(N4C[C@@H]5C[C@H]4CN5)cn3)nc2c(NC(C)C)n1`
# output < 10 nM

# input Same question, `C[C@@H](O)c1nc(N[C@H]2CCCOC2)c2nc(Nc3ccc(CN4CCNCC4)cn3)ncc2c1Cl` this time
# output < 10 nM

# input Here is the next compound: `CO[C@H](C)c1cc2cnc(Nc3ccc(N4CCNCC4=O)nn3)nc2c(NC(C)C)n1`
# output 10 to 100 nM

# input Queued: COC(C)c1cc2cnc(Nc3ccc(CN4CCNCC4)cn3)nc2c(N[C@H]2CC[C@](C)(C(=O)O)CC2)n1 (stereo partly drawn)
# output 10 to 100 nM
